Experiment: Prodrug stability in rat liver S9
Format: in vitro ADME
Conditions: Rat Liver S9 (0.5 mg/mL), 2.0 μM, NADPH, 37° C.
property_name: % of Prodrug Remaining after 60 min (%)
Report the figure in % without appending any unit label.

Lab note: measured % of Prodrug Remaining after 60 min of CC(=O)OCOC(=O)NC[C@H](CC(=O)[O-])c1ccc(Cl)cc1.[Na+] [(10)] was 0

So for CC(C)C(OC(=O)NC[C@H](CC(=O)[O-])c1ccc(Cl)cc1)OC(=O)C(C)(C)C.[Na+] (stereo partly shown) [(43)] , the logged % of Prodrug Remaining after 60 min turned out to be 3

GET /value?item= CC(C)C(=O)O[C@H](OC(=O)NC[C@H](CC(=O)[O-])c1ccc(Cl)cc1)C(C)C.[Na+] [(100)] &field=% of Prodrug Remaining after 60 min returns 3

get_value(item= CCCC(=O)OCOC(=O)NC[C@H](CC(=O)[O-])c1ccc(Cl)cc1.[Na+] [(16)] , readout=% of Prodrug Remaining after 60 min) returns 1

Note to self: % of Prodrug Remaining after 60 min recorded for CC(=O)OC(OC(=O)NC[C@H](CC(=O)[O-])c1ccc(Cl)cc1)C(C)C.[Na+] (stereo partly shown) [(23)] was 3

Noted for CCCC(=O)O[C@H](OC(=O)NC[C@H](CC(=O)[O-])c1ccc(Cl)cc1)C(C)C.[Na+] [(90)] : its % of Prodrug Remaining after 60 min reads 3

// % of Prodrug Remaining after 60 min lookup, compound = CC(C)C(=O)OC(OC(=O)NC[C@H](CC(=O)[O-])c1ccc(Cl)cc1)C(C)C.[Na+] (stereo partly shown) [(25)] , result: 1

* * *

Assay: Prodrug stability in human plasma in vitro
Type: in vitro ADME
Conditions: 2.0 μM, 37° C.
Would you mind telling me the reported % of Baclofen Released after 60 min of each entry?
Give the quantity in %, number only.

Short answer for CC(=O)OC(OC(=O)NC[C@H](CC(=O)[O-])c1ccc(Cl)cc1)C(C)C.[Na+] (some centres unmarked) : % of Baclofen Released after 60 min was 3

Reported % of Baclofen Released after 60 min of `O=C([O-])C[C@@H](CNC(=O)OCOC(=O)c1ccccc1)c1ccc(Cl)cc1.[Na+]` : 5

Form: compound = CC(=O)OC(C)OC(=O)NC[C@H](CC(=O)[O-])c1ccc(Cl)cc1.[Na+] (some centres unmarked) ; % of Baclofen Released after 60 min = 8

The compound listed as `CC(C)C(=O)O[C@H](C)OC(=O)NC[C@H](CC(=O)[O-])c1ccc(Cl)cc1.[Na+]` has a reported % of Baclofen Released after 60 min of 2

GET /value?item= `CCCC(=O)OCOC(=O)NC[C@H](CC(=O)[O-])c1ccc(Cl)cc1.[Na+]` &field=% of Baclofen Released after 60 min returns 20

Input CC(C)C(OC(=O)NC[C@H](CC(=O)[O-])c1ccc(Cl)cc1)OC(=O)C(C)(C)C.[Na+] (some centres unmarked) . Output % of Baclofen Released after 60 min: 2

For record `CCC[C@H](OC(=O)NC[C@H](CC(=O)[O-])c1ccc(Cl)cc1)OC(=O)C(C)C.[Na+]` the listed % of Baclofen Released after 60 min is 2

So for `O=C([O-])C[C@@H](CNC(=O)OCOC(=O)CCc1ccccc1)c1ccc(Cl)cc1.[Na+]` , the logged % of Baclofen Released after 60 min turned out to be 2

* * *

Experiment: Prodrug stability in human liver S9
Assay type: in vitro ADME
Conditions: Human Liver S9 (0.5 mg/mL), 2.0 μM, NADPH, 37° C.
Record form. Attribute: % of Prodrug Remaining after 60 min. Fill in for each entry.
Unit % implied. Number only.

`CCCC(=O)OCOC(=O)NC[C@H](CC(=O)[O-])c1ccc(Cl)cc1.[Na+]` has a reported % of Prodrug Remaining after 60 min of 1

Sample `CC(C)(C)C(=O)OCOC(=O)NC[C@H](CC(=O)[O-])c1ccc(Cl)cc1.[Na+]` ; % of Prodrug Remaining after 60 min observed: 1

Query `CC(C)C(=O)O[C@@H](OC(=O)NC[C@H](CC(=O)[O-])c1ccc(Cl)cc1)C(C)C.[Na+]` yields % of Prodrug Remaining after 60 min of 4

Please fill in: % of Prodrug Remaining after 60 min reported for `CCOC(C)(OCC)C(=O)OCOC(=O)NC[C@H](CC(=O)[O-])c1ccc(Cl)cc1.[Na+]` = 6

What the record says about `O=C([O-])C[C@@H](CNC(=O)OCOC(=O)CCc1ccccc1)c1ccc(Cl)cc1.[Na+]` : % of Prodrug Remaining after 60 min is 0

So, `CC(C)C(=O)OCOC(=O)NC[C@H](CC(=O)[O-])c1ccc(Cl)cc1.[Na+]` ? Its % of Prodrug Remaining after 60 min was 2

Record CC(=O)OC(C)OC(=O)NC[C@H](CC(=O)[O-])c1ccc(Cl)cc1.[Na+] (stereo partly shown) , field % of Prodrug Remaining after 60 min: 7

According to the records, this compound `CC(=O)OCOC(=O)NC[C@H](CC(=O)[O-])c1ccc(Cl)cc1.[Na+]` displays % of Prodrug Remaining after 60 min of 1

What the record says about `CC(C)C(=O)O[C@H](C)OC(=O)NC[C@H](CC(=O)[O-])c1ccc(Cl)cc1.[Na+]` : % of Prodrug Remaining after 60 min is 3

% of Prodrug Remaining after 60 min for CC(=O)OC(OC(=O)NC[C@H](CC(=O)[O-])c1ccc(Cl)cc1)C(C)C.[Na+] (stereo partly shown) is 4

Documented % of Prodrug Remaining after 60 min of CC(OC(=O)NC[C@H](CC(=O)[O-])c1ccc(Cl)cc1)OC(=O)C(C)C.[Na+] (stereo partly shown) : 3

Record `CCCC(=O)O[C@H](CCC)OC(=O)NC[C@H](CC(=O)[O-])c1ccc(Cl)cc1.[Na+]` . Reported % of Prodrug Remaining after 60 min: 2

Reported % of Prodrug Remaining after 60 min for CCCC(=O)OC(OC(=O)NC[C@H](CC(=O)[O-])c1ccc(Cl)cc1)C(C)C.[Na+] (stereo partly shown) was 8

What the record says about `CC(C)C(=O)O[C@@H](OC(=O)NC[C@H](CC(=O)O)c1ccc(Cl)cc1)C(C)C` : % of Prodrug Remaining after 60 min is 3

Given item `CC(C)C(=O)O[C@H](OC(=O)NC[C@H](CC(=O)[O-])c1ccc(Cl)cc1)C(C)C.[Na+]` , the value recorded as its % of Prodrug Remaining after 60 min is 1

Note to self: % of Prodrug Remaining after 60 min recorded for `CCCC(=O)O[C@H](OC(=O)NC[C@H](CC(=O)[O-])c1ccc(Cl)cc1)C(C)C.[Na+]` was 1

response.value for `CC(C)CC(=O)OCOC(=O)NC[C@H](CC(=O)[O-])c1ccc(Cl)cc1.[Na+]` (field: % of Prodrug Remaining after 60 min) = 1

Record `CCC[C@H](OC(=O)NC[C@H](CC(=O)[O-])c1ccc(Cl)cc1)OC(=O)C(C)C.[Na+]` . Reported % of Prodrug Remaining after 60 min: 1

Input `O=C([O-])C[C@@H](CNC(=O)OCOC(=O)C1CCCCC1)c1ccc(Cl)cc1.[Na+]` . Output % of Prodrug Remaining after 60 min: 2

Just so you know, measured % of Prodrug Remaining after 60 min for CC(C)C(=O)OC(OC(=O)NC[C@H](CC(=O)[O-])c1ccc(Cl)cc1)C(C)C.[Na+] (stereo partly shown) came out at 4

get_value(item= CC(OC(=O)NC[C@H](CC(=O)[O-])c1ccc(Cl)cc1)OC(=O)c1ccccc1.[Na+] (stereo partly shown) , readout=% of Prodrug Remaining after 60 min) returns 1

# compound `O=C([O-])C[C@@H](CNC(=O)OCOC(=O)c1cccs1)c1ccc(Cl)cc1.[Na+]` ; its % of Prodrug Remaining after 60 min = 1

% of Prodrug Remaining after 60 min recorded for this compound, `O=C([O-])C[C@@H](CNC(=O)OCOC(=O)c1ccccc1)c1ccc(Cl)cc1.[Na+]` , is 1

# % of Prodrug Remaining after 60 min (compound: CCCC(=O)OC(OC(=O)NC[C@H](CC(=O)[O-])c1ccc(Cl)cc1)C1CCCCC1.[Na+] (stereo partly shown) ) is 2

Record CC(C)C(=O)OC(OC(=O)NC[C@H](CC(=O)[O-])c1ccc(Cl)cc1)C1CCCCC1.[Na+] (stereo partly shown) . Reported % of Prodrug Remaining after 60 min: 2

* * *

Experiment: Caco-2 homogenate S9 stability
Type: in vitro ADME
Conditions: Caco-2 S9 (0.5 mg protein per mL), 5 μM, 37° C.
Provide the reported % of Prodrug Remaining after 60 min of each item.
Field format: number, assumed %, no unit text.

Record `O=C([O-])C[C@@H](CNC(=O)OCOC(=O)c1cccs1)c1ccc(Cl)cc1.[Na+]` , field % of Prodrug Remaining after 60 min: 2

Entry CCCC(=O)OC(OC(=O)NC[C@H](CC(=O)[O-])c1ccc(Cl)cc1)C1CCCCC1.[Na+] (stereo partly shown) , % of Prodrug Remaining after 60 min reported as 4

Summary for this molecule, `O=C([O-])C[C@@H](CNC(=O)OCOC(=O)C1CCCCC1)c1ccc(Cl)cc1.[Na+]` : % of Prodrug Remaining after 60 min is 2

Memo: `CCCC(=O)O[C@H](OC(=O)NC[C@H](CC(=O)[O-])c1ccc(Cl)cc1)C(C)C.[Na+]` , reported % of Prodrug Remaining after 60 min: 5

The reported % of Prodrug Remaining after 60 min of the molecule `CC(C)(C)C(=O)OCOC(=O)NC[C@H](CC(=O)[O-])c1ccc(Cl)cc1.[Na+]` was 1

Measured % of Prodrug Remaining after 60 min of `CCCC(=O)OCOC(=O)NC[C@H](CC(=O)[O-])c1ccc(Cl)cc1.[Na+]` : 1

% of Prodrug Remaining after 60 min reported for this molecule `CCC[C@H](OC(=O)NC[C@H](CC(=O)[O-])c1ccc(Cl)cc1)OC(=O)C(C)C.[Na+]` : 6

So, CC(OC(=O)NC[C@H](CC(=O)[O-])c1ccc(Cl)cc1)OC(=O)C(C)C.[Na+] (stereo partly shown) ? Its % of Prodrug Remaining after 60 min was 3

Memo: `O=C([O-])C[C@@H](CNC(=O)OCOC(=O)c1ccccc1)c1ccc(Cl)cc1.[Na+]` , reported % of Prodrug Remaining after 60 min: 2

Record `CC(C)C(=O)O[C@H](C)OC(=O)NC[C@H](CC(=O)[O-])c1ccc(Cl)cc1.[Na+]` , field % of Prodrug Remaining after 60 min: 2

Query `O=C([O-])C[C@@H](CNC(=O)OCOC(=O)CCc1ccccc1)c1ccc(Cl)cc1.[Na+]` yields % of Prodrug Remaining after 60 min of 1

Entry under test: CC(=O)OC(C)OC(=O)NC[C@H](CC(=O)[O-])c1ccc(Cl)cc1.[Na+] (stereo partly shown) . Its % of Prodrug Remaining after 60 min was 24

Summary for this molecule, `CC(C)C(=O)OCOC(=O)NC[C@H](CC(=O)[O-])c1ccc(Cl)cc1.[Na+]` : % of Prodrug Remaining after 60 min is 1

Lab book: % of Prodrug Remaining after 60 min of `CC(C)C(=O)O[C@H](OC(=O)NC[C@H](CC(=O)[O-])c1ccc(Cl)cc1)C(C)C.[Na+]` noted as 7

Consider CC(C)C(=O)OC(OC(=O)NC[C@H](CC(=O)[O-])c1ccc(Cl)cc1)C(C)C.[Na+] (stereo partly shown) . Its measured % of Prodrug Remaining after 60 min is 2

# % of Prodrug Remaining after 60 min (molecule: `CCOC(C)(OCC)C(=O)OCOC(=O)NC[C@H](CC(=O)[O-])c1ccc(Cl)cc1.[Na+]` ) is 3

For this molecule ( `CC(C)CC(=O)OCOC(=O)NC[C@H](CC(=O)[O-])c1ccc(Cl)cc1.[Na+]` ), measured % of Prodrug Remaining after 60 min is 3

What the record says about `CCCC(=O)O[C@H](CCC)OC(=O)NC[C@H](CC(=O)[O-])c1ccc(Cl)cc1.[Na+]` : % of Prodrug Remaining after 60 min is 2

So for `CC(=O)OCOC(=O)NC[C@H](CC(=O)[O-])c1ccc(Cl)cc1.[Na+]` , the logged % of Prodrug Remaining after 60 min turned out to be 2
